Recorded pIC50 by entry
- tested.target: PKG (Plasmodium falciparum, UniProt Q8I719)
- Sequence (Q8I719 whole entry): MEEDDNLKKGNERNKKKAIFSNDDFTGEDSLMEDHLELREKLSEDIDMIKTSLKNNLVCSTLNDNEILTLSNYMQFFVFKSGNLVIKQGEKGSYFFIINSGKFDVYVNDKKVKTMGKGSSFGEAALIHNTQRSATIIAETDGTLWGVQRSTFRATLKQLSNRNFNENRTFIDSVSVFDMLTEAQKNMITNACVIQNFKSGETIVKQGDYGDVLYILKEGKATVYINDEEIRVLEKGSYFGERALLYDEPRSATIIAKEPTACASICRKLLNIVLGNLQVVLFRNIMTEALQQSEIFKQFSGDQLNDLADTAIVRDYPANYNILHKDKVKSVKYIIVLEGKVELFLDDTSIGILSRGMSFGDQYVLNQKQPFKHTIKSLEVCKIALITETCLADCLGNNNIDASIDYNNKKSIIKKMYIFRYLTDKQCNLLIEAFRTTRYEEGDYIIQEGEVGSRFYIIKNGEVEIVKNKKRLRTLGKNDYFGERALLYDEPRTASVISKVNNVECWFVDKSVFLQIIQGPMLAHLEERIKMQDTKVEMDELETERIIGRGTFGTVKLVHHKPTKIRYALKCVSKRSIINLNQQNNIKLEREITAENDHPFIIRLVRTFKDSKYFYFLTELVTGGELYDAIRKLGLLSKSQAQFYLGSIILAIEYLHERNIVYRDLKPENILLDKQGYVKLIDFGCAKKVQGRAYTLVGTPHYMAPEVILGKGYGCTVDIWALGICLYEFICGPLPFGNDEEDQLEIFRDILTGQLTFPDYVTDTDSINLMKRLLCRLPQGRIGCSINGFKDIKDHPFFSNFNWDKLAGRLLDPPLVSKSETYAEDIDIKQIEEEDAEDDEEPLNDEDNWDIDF
- assay.procedure: PKG IC50 (supplementary data file of hits)
- Assay type: biochemical
pIC50: −log10 of the molar value.

[
  {
    "record.smiles": "CC(=O)Nc1cccc(Nc2nccc(-c3c(-c4cccc(NC(=O)c5c(F)cccc5F)c4)nn4ncccc34)n2)c1",
    "tested.target": "PKG (Plasmodium falciparum, UniProt Q8I719)",
    "pIC50": 6.28
  },
  {
    "record.smiles": "CCn1c(-c2nonc2N)nc2c(-c3cccc(NC(=O)Nc4cccc(C(F)(F)F)c4)c3)ncc(OCCCN)c21.O=C(O)C(F)(F)F",
    "tested.target": "PKG (Plasmodium falciparum, UniProt Q8I719)",
    "pIC50": 5.68
  },
  {
    "record.smiles": "CCn1c(-c2nonc2N)nc2c(-c3cccc(NC(=O)Nc4ccccc4Cl)c3)ncc(OCCCN)c21.O=C(O)C(F)(F)F",
    "tested.target": "PKG (Plasmodium falciparum, UniProt Q8I719)",
    "pIC50": 6.25
  }
]
